Test system: E. coli BW25113 ΔtolC growth inhibition, OD615
Experiment: growth inhibitors of E. coli tolC mutant, dose response, strain BW25113 ΔtolC::kan (AID 617);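 also: growth read after 20 h at 37 °C with compound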
Answer each item with its documented IC50.

Can you look up the measured IC50 of CC(=O)Nc1cccc(NC(=O)CSc2ncc(-c3ccc(Cl)cc3)n2Cc2ccco2)c1 for me?
2.99 µM

Can you look up the measured IC50 of CCOC(=O)c1cnn(-c2nc3sc4c(c3c(=O)[nH]2)CCCC4)c1N for me?
0.28 µM

Can you look up the measured IC50 of CCc1nc2sc3ccccc3c(=O)c2c(=O)n1Cc1ccco1 for me?
17.1 µM

Can you look up the measured IC50 of CCOC(=O)c1c(-c2cccs2)csc1NC(=O)CN1CC(C)OC(C)C1 (configuration not stated) for me?
24.8 µM

Can you look up the measured IC50 of CCCOC(=O)c1ccc(Oc2cn[nH]c2-c2ccc(OCC)cc2O)cc1 for me?
13.6 µM

Can you look up the measured IC50 of Cc1c(CCC(=O)O)c(=O)oc2cc3occ(-c4ccc(F)cc4)c3cc12 for me?
5.48 µM

Can you look up the measured IC50 of COc1ccc(C)cc1NC(=O)CSc1nnc(COc2ccccc2)n1Cc1ccco1 for me?
22 µM

Can you look up the measured IC50 of O=C(COC(=O)c1ccc(Oc2ccccc2)cc1)Nc1nnc(-c2ccccc2)o1 for me?
0.96 µM

Can you look up the measured IC50 of Cc1cc(-c2nnc3n2N=C(c2ccc(-c4ccccc4)cc2)CS3)n[nH]1 for me?
9.55 µM

Can you look up the measured IC50 of CCC1CCCCN1C(=O)c1cc(-c2ccc(Cl)c(Cl)c2)on1 (configuration not stated) for me?
10.3 µM

Can you look up the measured IC50 of COc1ccc(NS(=O)(=O)c2ccc3oc4ccccc4c3c2)cn1 for me?
5.62 µM

Can you look up the measured IC50 of CCOC(=O)c1cnc(-n2nc(C)cc2C)nc1NCc1ccccc1 for me?
0.68 µM

Can you look up the measured IC50 of Cc1ccc(NC(=O)c2ccccc2O)cc1 for me?
16 µM

Can you look up the measured IC50 of CCCOc1nc2c(c(=O)n(C)c(=O)n2C)n1Cc1cccc2ccccc12 for me?
28.2 µM

Can you look up the measured IC50 of CCN(C(=O)c1cc2cc3ccc(C)cc3nc2o1)c1ccc(OC)cc1 for me?
19 µM

Can you look up the measured IC50 of CC1CCN(C(=O)c2ccc(COc3ccccc3Cl)o2)CC1 for me?
11.1 µM

Can you look up the measured IC50 of CCCCOc1ccccc1Cn1c(=O)oc2ccc(C)cc21 for me?
16.4 µM

Can you look up the measured IC50 of N=c1n(CCN2CCOCC2)c2ccccc2n1CC(=O)c1ccc(Cl)c(Cl)c1 for me?
27.1 µM

Can you look up the measured IC50 of Cc1ccc(-c2csc3ncn(-n4c(C)ccc4C)c(=O)c23)o1 for me?
14.9 µM

Can you look up the measured IC50 of CC(C)(C)c1cc(C(F)(F)F)nc(SCCCNC(=O)c2ccco2)n1 for me?
6.37 µM

Can you look up the measured IC50 of CC(=O)Nc1nc2ccccc2n1Cc1ccccc1C for me?
18.1 µM

Can you look up the measured IC50 of Cc1ccc2cc(CN(Cc3ccc(F)cc3)Cc3nnnn3C3CCCC3)c(=O)[nH]c2c1 for me?
12.8 µM
